Data origin: patent US12559474B2

# System: SARS-CoV-2
# protocolSummary: microbe, parasite or virus in culture
# Assay type: cell-based
# testConditions: 50% SARS-CoV-2 infected cell death inhibitory concentration; VeroE6/TMPRSS2 cells, 3 days culture; class symbols
pEC50: −log10 of the molar value.
Kindly supply the reported pEC50 values for the records listed here.

- compound: "Cc1cncc(-n2c(=O)nc(Nc3cc4c(cc3Cl)OC(C)C4)n(Cc3ccc(F)c(C#N)c3)c2=O)c1 (centres unmarked) [II-0117]"
  measureName: "pEC50"
  obsValue: "> 6.00"

Shifting focus to the compound that follows.
(Q) Dear colleague, I am looking for the recorded pEC50 of the following compound: Cc1cncc(-n2c(=O)nc(Nc3cc4c(cc3Cl)OC(C)C4)n(Cc3ccc(F)c(C#N)c3)c2=O)c1 (centres unmarked) [II-0121]
(A) > 6.00
